# Organism: Homo sapiens
# Protocol Summary: To identify inhibition of the IFN signalling (Jak-Stat) pathway via expression of an eGFP reporter gene under the control of an IFN-stimulated response element (ISRE) containing MxA promoter.
# Type: functional
# Parameters: scale not given: direction of the effect not stated beside the values
# Test Conditions: 30 µM
Measured Quantity: Percent Effect (%)
Dear colleague, please return just the value in %, with no unit written.

Q: Quote Percent Effect reported for O=C(c1ccco1)N1CCC2(CC1)C(=O)NCCN2CC1CC1 please.
A: 8.56

Q: Quote Percent Effect reported for NC(=O)c1csc(C(=O)N2CCCC(n3ccnc3)C2)c1 (configuration not stated) please.
A: -1.55

Q: Quote Percent Effect reported for NCC1Cn2nnc(-c3cccc(F)c3)c2CO1 (configuration not stated) please.
A: -8.6

Q: Quote Percent Effect reported for CC(C)c1nc(C2CCCN(Cc3nnc(C4CC4)o3)C2)no1 (configuration not stated) please.
A: 4.85

Q: Quote Percent Effect reported for Cn1c(CNc2c(F)cccc2-n2cccn2)cc(=O)n(C)c1=O please.
A: 5.47

Q: Quote Percent Effect reported for Cc1nc(C)n(CC2CCCCN2Cc2ncc(C(C)(C)C)o2)n1 (configuration not stated) please.
A: 10.5

Q: Quote Percent Effect reported for O=C(CN(C1=NCCCC1)c1ccccc1)c1ccccc1 please.
A: -2.85

Q: Quote Percent Effect reported for CC(NC(=O)NCC1(c2ccccc2)CCC1)c1nncn1C (configuration not stated) please.
A: -2.94

Q: Quote Percent Effect reported for Cn1nc2c(cc1=O)CN(Cc1nnc(C3CC3)o1)CC2 please.
A: 36.5

Q: Quote Percent Effect reported for O=C(COc1coc(CN2CCCCC2)cc1=O)Nc1ccc(Cl)cc1 please.
A: -11.6

Q: Quote Percent Effect reported for c1csc(CN2C[C@@H]3OCCN(CC4CCCO4)[C@@H]3C2)c1 (some centres not stated) please.
A: 4.94

Q: Quote Percent Effect reported for Cc1c(F)cc(C(=O)O)cc1S(=O)(=O)Nc1ccc2c(c1)OCCO2 please.
A: -3.86
